target: galectin-3 (Homo sapiens); assay: Fluorescence anisotropy assay, affinity for galectin-3; details: compound as inhibitor of the interaction between galectin and a fluorescein tagged saccharide probe; read-out: Gal-3 Kd
Sequence (P17931 whole entry): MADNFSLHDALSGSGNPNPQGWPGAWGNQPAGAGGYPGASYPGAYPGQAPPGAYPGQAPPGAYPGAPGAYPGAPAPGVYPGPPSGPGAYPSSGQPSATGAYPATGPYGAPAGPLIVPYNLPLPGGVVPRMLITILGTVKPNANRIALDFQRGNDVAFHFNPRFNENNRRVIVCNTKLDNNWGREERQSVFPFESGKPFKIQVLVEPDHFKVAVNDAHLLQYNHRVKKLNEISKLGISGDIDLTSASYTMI
The reader will find reported log10 Kd values listed item by item below.
In plain terms, each number is the log10 of measured Kd in nM.

These solved cases illustrate the format of a correct answer.
[
  {
    "compound": "Nc1nc(-c2cn(C3C(O)[C@H](c4ccnn4-c4cc(Cl)ccc4C(F)(F)F)OC(CO)[C@@H]3O)nn2)cs1 (stereo partly shown)",
    "testedOn": "galectin-3 (Homo sapiens)",
    "observedProperty": "log10 Kd",
    "reportedMeasurement": 4.03
  },
  {
    "compound": "COC1C(n2cc(-c3nc(Cl)cs3)nn2)[C@@H](O)C(CO)O[C@H]1c1ccnn1-c1cc(Cl)c(Cl)cc1C(F)(F)F (stereo partly shown)",
    "testedOn": "galectin-3 (Homo sapiens)",
    "observedProperty": "log10 Kd",
    "reportedMeasurement": 3.04
  },
  {
    "compound": "COC1C(n2cc(-c3nccs3)nn2)[C@@H](O)C(CO)O[C@H]1c1cc(C)nn1-c1cc(Cl)ccc1C(F)(F)F (stereo partly shown)",
    "testedOn": "galectin-3 (Homo sapiens)",
    "observedProperty": "log10 Kd",
    "reportedMeasurement": 3.72
  },
  {
    "compound": "COC1C(n2cc(-c3nc(Cl)cs3)nn2)[C@@H](O)C(CO)O[C@H]1c1ccnn1-c1ccc2nc(C)sc2c1 (stereo partly shown)",
    "testedOn": "galectin-3 (Homo sapiens)",
    "observedProperty": "log10 Kd",
    "reportedMeasurement": 3.18
  },
  {
    "compound": "COC1C(n2cc(-c3cscn3)nn2)[C@@H](O)C(CO)O[C@H]1c1ccnn1-c1cc(Cl)ccc1C(F)(F)F (stereo partly shown)",
    "testedOn": "galectin-3 (Homo sapiens)",
    "observedProperty": "log10 Kd",
    "reportedMeasurement": 3.69
  }
]

Prompt: What log10 Kd value was documented for this compound, OCC1O[C@@H](c2ccnn2-c2cc(Cl)ccc2C(F)(F)F)C(O)C(n2cc(-c3ncc(Cl)s3)nn2)[C@H]1O (stereo partly shown) ?
Completion: 2.52

Prompt: What log10 Kd value was documented for this compound, COC1C(n2cc(-c3ncc(C)s3)nn2)[C@@H](O)C(CO)O[C@H]1c1ccnn1-c1cc(Cl)ccc1C(F)(F)F (stereo partly shown) ?
Completion: 2.64

Hello, the source for this data is patent US20240132531A1, in case you need it.
